Tested on: Candida albicans
TEST_DETAILS: Ratio of Amphotericin B MIC to compound MIC for Candida albicans after 48 hrs by broth dilution technique
Type: functional
RECORDED_METRIC: Ratio

Q: State, in one line, measured Ratio of "O=C(NNC(=S)Nc1ccccc1F)c1cc([N+](=O)[O-])c[nH]1"
Ans: 4

Q: State, in one line, measured Ratio of "COc1ccc(NC(=S)NNC(=O)c2cc([N+](=O)[O-])c[nH]2)cc1"
Ans: 4

Q: State, in one line, measured Ratio of "COc1ccc(OC)c(NC(=O)NNC(=O)c2cc([N+](=O)[O-])cn2C)c1"
Ans: 2

Q: State, in one line, measured Ratio of "Cn1cc([N+](=O)[O-])cc1C(=O)NNC(=O)NCCc1ccccc1"
Ans: 2

Q: State, in one line, measured Ratio of "O=C(NNC(=S)Nc1ccc(Cl)cc1)c1cc([N+](=O)[O-])c[nH]1"
Ans: 4

Q: State, in one line, measured Ratio of "Cn1cc([N+](=O)[O-])cc1C(=O)NNC(=S)Nc1ccc(F)cc1"
Ans: 4

Q: State, in one line, measured Ratio of "O=C(NNC(=S)NCc1ccccc1)c1cc([N+](=O)[O-])c[nH]1"
Ans: 4

Q: State, in one line, measured Ratio of "O=C(NNC(=S)NC1CCCCC1)c1cc([N+](=O)[O-])c[nH]1"
Ans: 4

Q: State, in one line, measured Ratio of "Cc1ccccc1NC(=S)NNC(=O)c1cc([N+](=O)[O-])cn1C"
Ans: 4

Q: State, in one line, measured Ratio of "COc1ccc(NC(=S)NNC(=O)c2cc([N+](=O)[O-])cn2C)cc1"
Ans: 4

Q: State, in one line, measured Ratio of "Cn1cc([N+](=O)[O-])cc1C(=O)NNC(=S)Nc1ccc([N+](=O)[O-])cc1"
Ans: 4

Q: State, in one line, measured Ratio of "Cn1cc([N+](=O)[O-])cc1C(=O)NNC(=O)Nc1ccc(Cl)cc1"
Ans: 2

Q: State, in one line, measured Ratio of "Cn1cc([N+](=O)[O-])cc1C(=O)NNC(=O)Nc1ccccc1"
Ans: 2

Q: State, in one line, measured Ratio of "Cn1cc([N+](=O)[O-])cc1C(=O)NNC(=O)NC1CCCC1"
Ans: 2

Q: State, in one line, measured Ratio of "COc1cc(NC(=S)NNC(=O)c2cc([N+](=O)[O-])c[nH]2)cc(OC)c1OC"
Ans: 4

----------
Reported MIC values are given for each entry in this list.
Test system: Candida albicans
TEST_DETAILS: Antimicrobial activity against Candida albicans after 48 hrs by agar dilution method
Assay type: functional
All answers are understood in mg/L, so give the number only.

// below: answered compounds
# SMI, MIC [mg/L]
rows = [
    ("C[C@@H]1[C@H](O)[C@@H](C)/C=C/C=C/C=C/C=C/C=C/C=C/C=C/[C@H](O[C@@H]2O[C@H](C)[C@@H](O)[C@H](N)[C@@H]2O)C[C@@H]2O[C@](O)(C[C@@H](O)C[C@@H](O)[C@H](O)CC[C@@H](O)C[C@@H](O)CC(=O)O[C@H]1C)C[C@H](O)[C@H]2C(=O)O", 3.12),
    ("O=C(NNC(=O)c1cc([N+](=O)[O-])c[nH]1)Nc1ccc(Br)cc1", 3.12),
    ("COc1ccc(OC)c(NC(=O)NNC(=O)c2cc([N+](=O)[O-])cn2C)c1", 1.56),
    ("O=C(NCc1ccccc1)NNC(=O)c1cc([N+](=O)[O-])c[nH]1", 3.12),
    ("Cn1cc([N+](=O)[O-])cc1C(=O)NNC(=S)Nc1ccccc1F", 0.78),
]

Q: State, in one line, measured MIC of "O=C(NNC(=O)c1cc([N+](=O)[O-])c[nH]1)Nc1ccc(Cl)cc1"
Ans: 3.12

Q: State, in one line, measured MIC of "COc1ccc(NC(=O)NNC(=O)c2cc([N+](=O)[O-])cn2C)cc1"
Ans: 1.56

Q: State, in one line, measured MIC of "O=C(NNC(=S)NC1CCCCC1)c1cc([N+](=O)[O-])c[nH]1"
Ans: 3.12

Q: State, in one line, measured MIC of "Cn1cc([N+](=O)[O-])cc1C(=O)NNC(=S)NC1CCCCC1"
Ans: 0.78

Q: State, in one line, measured MIC of "C=[N+]([O-])c1cc(C(=O)NNC(=O)NCc2ccccc2)n(C)c1"
Ans: 1.56

Q: State, in one line, measured MIC of "O=C(NNC(=S)Nc1ccccc1F)c1cc([N+](=O)[O-])c[nH]1"
Ans: 3.12

Q: State, in one line, measured MIC of "Cn1cc([N+](=O)[O-])cc1C(=O)NNC(=S)NCc1ccccc1"
Ans: 1.56

Q: State, in one line, measured MIC of "O=C(NCc1ccco1)NNC(=O)c1cc([N+](=O)[O-])c[nH]1"
Ans: 3.12

Q: State, in one line, measured MIC of "Cn1cc([N+](=O)[O-])cc1C(=O)NNC(=O)Nc1ccc(Br)cc1"
Ans: 1.56

Q: State, in one line, measured MIC of "Cn1cc([N+](=O)[O-])cc1C(=O)NNC(=S)Nc1ccc([N+](=O)[O-])cc1"
Ans: 0.78

Q: State, in one line, measured MIC of "COc1cc(NC(=S)NNC(=O)c2cc([N+](=O)[O-])c[nH]2)cc(OC)c1OC"
Ans: 3.12

Q: State, in one line, measured MIC of "Cc1ccccc1NC(=S)NNC(=O)c1cc([N+](=O)[O-])c[nH]1"
Ans: 3.12

Q: State, in one line, measured MIC of "Cn1cc([N+](=O)[O-])cc1C(=O)NNC(=S)Nc1ccc(Cl)cc1"
Ans: 0.78

Q: State, in one line, measured MIC of "O=C(NNC(=S)Nc1ccc(Cl)cc1)c1cc([N+](=O)[O-])c[nH]1"
Ans: 3.12

----------
System: Candida albicans
TEST_DETAILS: Ratio of Amphotericin B MIC to compound MIC for Candida albicans after 48 hrs by broth dilution technique
Type: functional
RECORDED_METRIC: Ratio

// below: answered compounds
# SMI, Ratio
measured = [
    ("Cc1ccccc1NC(=S)NNC(=O)c1cc([N+](=O)[O-])c[nH]1", 4),
    ("Cn1cc([N+](=O)[O-])cc1C(=O)NNC(=S)Nc1ccc(Cl)cc1", 4),
    ("COc1cc(NC(=S)NNC(=O)c2cc([N+](=O)[O-])cn2C)cc(OC)c1OC", 4),
]

Q: State, in one line, measured Ratio of "COc1ccc(NC(=O)NNC(=O)c2cc([N+](=O)[O-])cn2C)cc1"
Ans: 2

Q: State, in one line, measured Ratio of "O=C(NNC(=S)Nc1ccc(F)cc1)c1cc([N+](=O)[O-])c[nH]1"
Ans: 4

Q: State, in one line, measured Ratio of "Cn1cc([N+](=O)[O-])cc1C(=O)NNC(=O)Nc1ccc([N+](=O)[O-])cc1"
Ans: 2

----------
System: Candida albicans
TEST_DETAILS: Antimicrobial activity against Candida albicans after 48 hrs by agar dilution method
Format: functional
RECORDED_METRIC: MIC
Write the figure, then the unit, nothing else.

// below: answered molecules
# SMI, MIC
records = [
    ("O=C(NNC(=S)NCc1ccccc1)c1cc([N+](=O)[O-])c[nH]1", "3.12 µg/mL"),
    ("O=C(NNC(=O)c1cc([N+](=O)[O-])c[nH]1)NC1CCCC1", "3.12 µg/mL"),
    ("COc1cc(NC(=S)NNC(=O)c2cc([N+](=O)[O-])cn2C)cc(OC)c1OC", "0.78 µg/mL"),
]

Q: State, in one line, measured MIC of "COc1ccc(NC(=O)NNC(=O)c2cc([N+](=O)[O-])c[nH]2)cc1"
Ans: 3.12 µg/mL

Q: State, in one line, measured MIC of "Cn1cc([N+](=O)[O-])cc1C(=O)NNC(=O)NCc1ccco1"
Ans: 1.56 µg/mL
